Tested on: Escherichia coli TOP10;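 further: peptides expressed intracellularly from a pBAD plasmid library in pooled LB shake-flask culture, induced with 0.3% L-arabinose, DNA abundance read by NGS, three biological replicates, DESeq2 with apeglm shrinkage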
Experimental Protocol: shrunken log2 fold change of peptide-encoding DNA abundance (4.5 h post-induction vs induction); higher = less antimicrobial activity (less host growth inhibition)
Test Conditions: time post-induction: 4.5 h; library: site-saturation at positions 5, 18, 19, 20
Criterion: shrunken log2 fold change meeting or surpassing 0.05. Met: criterion met. Not met: criterion not met.

In [3]: df
Out[3]:
            input_sequence     classification
0  RRIRWRPPRLPRPRPRPHVAPRP      criterion met
1  RRIRNRPPRLPRPRPRPYQQPRP  criterion not met
2  RRIRQRPPRLPRPRPRPDYRPRP  criterion not met
3  RRIRMRPPRLPRPRPRPQSMPRP      criterion met
4  RRIRMRPPRLPRPRPRPMRPPRP      criterion met
5  RRIRFRPPRLPRPRPRPGFIPRP  criterion not met
6  RRIRGRPPRLPRPRPRPKTEPRP      criterion met
